Provide the recorded half-life at 1 µM for the entries that follow.
target: CYP3A4 (Homo sapiens, UniProt P08684); experiment: Activity at recombinant CYP3A4 (unknown origin) assessed as half life at 1 uM by LC-MS analysis; assay type: ADME
Sequence (P08684 whole entry): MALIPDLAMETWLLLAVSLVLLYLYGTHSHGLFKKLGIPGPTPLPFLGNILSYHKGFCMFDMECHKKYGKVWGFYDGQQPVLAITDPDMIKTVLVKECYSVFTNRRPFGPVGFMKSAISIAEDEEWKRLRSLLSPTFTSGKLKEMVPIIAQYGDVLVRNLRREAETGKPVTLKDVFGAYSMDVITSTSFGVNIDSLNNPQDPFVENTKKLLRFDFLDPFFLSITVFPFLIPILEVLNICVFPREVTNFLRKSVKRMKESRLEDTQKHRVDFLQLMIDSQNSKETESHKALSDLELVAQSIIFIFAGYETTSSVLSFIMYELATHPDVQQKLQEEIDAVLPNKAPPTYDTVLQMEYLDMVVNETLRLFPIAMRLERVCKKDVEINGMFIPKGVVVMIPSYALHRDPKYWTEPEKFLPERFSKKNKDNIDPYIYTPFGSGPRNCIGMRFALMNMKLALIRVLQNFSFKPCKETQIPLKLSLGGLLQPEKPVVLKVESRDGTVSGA
Give the value in min but do not write min after it.

Return reported half-life at 1 µM; argument: CCCC1O[C@@H]2C[C@H]3[C@@H]4CCC5=CC(=O)C=C[C@]5(C)[C@H]4[C@@H](O)C[C@]3(C)[C@]2(C(=O)CO)O1 (some centres undefined) [BUDESONIDE]
11

What do we get for CCC(=O)O[C@]1(C(=O)SCF)[C@H](C)C[C@H]2[C@@H]3C[C@H](F)C4=CC(=O)C=C[C@]4(C)[C@@]3(F)[C@@H](O)C[C@@]21C [FLUTICASONE PROPIONATE] ?
0.86

What do we get for CC1(C)O[C@@H]2C[C@H]3[C@@H]4C[C@H](F)C5=CC(=O)C=C[C@]5(C)[C@H]4[C@@H](O)C[C@]3(C)[C@]2(C(=O)CO)O1 [FLUNISOLIDE] ?
16

What do we get for CC1(C)O[C@@H]2C[C@H]3[C@@H]4CCC5=CC(=O)C=C[C@]5(C)[C@@]4(F)[C@@H](O)C[C@]3(C)[C@]2(C(=O)CO)O1 [TRIAMCINOLONE ACETONIDE] ?
12

###

biological target: CYP3A7 (Homo sapiens, UniProt P24462); test: Activity at recombinant CYP3A7 (unknown origin) assessed as half life at 1 uM by LC-MS analysis; type: ADME
Sequence (P24462 whole entry): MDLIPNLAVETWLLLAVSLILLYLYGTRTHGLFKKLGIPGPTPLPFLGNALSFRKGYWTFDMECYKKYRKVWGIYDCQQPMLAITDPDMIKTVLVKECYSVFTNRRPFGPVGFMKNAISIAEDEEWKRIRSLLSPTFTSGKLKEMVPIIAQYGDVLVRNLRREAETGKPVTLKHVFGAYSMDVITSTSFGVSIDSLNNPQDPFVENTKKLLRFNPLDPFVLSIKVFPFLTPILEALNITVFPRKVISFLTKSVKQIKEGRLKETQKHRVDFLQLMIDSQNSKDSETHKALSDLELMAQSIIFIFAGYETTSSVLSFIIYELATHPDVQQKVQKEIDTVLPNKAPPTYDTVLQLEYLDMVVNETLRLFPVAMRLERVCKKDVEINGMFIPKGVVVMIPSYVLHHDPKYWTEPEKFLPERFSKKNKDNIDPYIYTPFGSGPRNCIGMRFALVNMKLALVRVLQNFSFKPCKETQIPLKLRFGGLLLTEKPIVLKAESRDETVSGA
property name: half-life at 1 µM (h)
Give the value in h but do not write h after it.

Return reported half-life at 1 µM; argument: CC1(C)O[C@@H]2C[C@H]3[C@@H]4CCC5=CC(=O)C=C[C@]5(C)[C@@]4(F)[C@@H](O)C[C@]3(C)[C@]2(C(=O)CO)O1 [TRIAMCINOLONE ACETONIDE]
3.55

What do we get for CCC(=O)O[C@]1(C(=O)SCF)[C@H](C)C[C@H]2[C@@H]3C[C@H](F)C4=CC(=O)C=C[C@]4(C)[C@@]3(F)[C@@H](O)C[C@@]21C [FLUTICASONE PROPIONATE] ?
0.967

What do we get for CCCC1O[C@@H]2C[C@H]3[C@@H]4CCC5=CC(=O)C=C[C@]5(C)[C@H]4[C@@H](O)C[C@]3(C)[C@]2(C(=O)CO)O1 (stereo partly drawn) [BUDESONIDE] ?
1.18
